Assay Notes: Plasma stability assay, human plasma
Assay type: in vitro ADME
Measurement Parameters: 37° C., 24 h
Value Kind: Plasma Stability (% remaining, 6 h/24 h) Human

# Structure String, Result
data = [
    ("CNC(=O)c1cncc(Cn2nc(C)c(NC(=O)c3ccc(COc4ccc(C(F)(F)F)cc4)cc3)c2C)c1", "—/94%"),
    ("CNC(=O)c1cncc(Cn2nc(C)c(NC(=O)c3ccc(COc4ccc(C(F)(F)F)cc4C)cc3)c2C)c1", "—/98%"),
    ("CNC(=O)c1cc(Cn2nc(C)c(NC(=O)c3ccc(COc4ccc(C(F)(F)F)cc4)cc3)c2C)ccn1", "—/98%"),
    ("CNC(=O)c1cccc(Cn2nc(C)c(NC(=O)c3ccc(COc4ccc(C(F)(F)F)cc4C)cc3)c2C)c1", "100%"),
]

Just for reference, patent US10357477B2 is where these values come from.
